target_system: PI3Kδ (Homo sapiens (Human))
Sequence (O00329 whole entry, canonical isoform): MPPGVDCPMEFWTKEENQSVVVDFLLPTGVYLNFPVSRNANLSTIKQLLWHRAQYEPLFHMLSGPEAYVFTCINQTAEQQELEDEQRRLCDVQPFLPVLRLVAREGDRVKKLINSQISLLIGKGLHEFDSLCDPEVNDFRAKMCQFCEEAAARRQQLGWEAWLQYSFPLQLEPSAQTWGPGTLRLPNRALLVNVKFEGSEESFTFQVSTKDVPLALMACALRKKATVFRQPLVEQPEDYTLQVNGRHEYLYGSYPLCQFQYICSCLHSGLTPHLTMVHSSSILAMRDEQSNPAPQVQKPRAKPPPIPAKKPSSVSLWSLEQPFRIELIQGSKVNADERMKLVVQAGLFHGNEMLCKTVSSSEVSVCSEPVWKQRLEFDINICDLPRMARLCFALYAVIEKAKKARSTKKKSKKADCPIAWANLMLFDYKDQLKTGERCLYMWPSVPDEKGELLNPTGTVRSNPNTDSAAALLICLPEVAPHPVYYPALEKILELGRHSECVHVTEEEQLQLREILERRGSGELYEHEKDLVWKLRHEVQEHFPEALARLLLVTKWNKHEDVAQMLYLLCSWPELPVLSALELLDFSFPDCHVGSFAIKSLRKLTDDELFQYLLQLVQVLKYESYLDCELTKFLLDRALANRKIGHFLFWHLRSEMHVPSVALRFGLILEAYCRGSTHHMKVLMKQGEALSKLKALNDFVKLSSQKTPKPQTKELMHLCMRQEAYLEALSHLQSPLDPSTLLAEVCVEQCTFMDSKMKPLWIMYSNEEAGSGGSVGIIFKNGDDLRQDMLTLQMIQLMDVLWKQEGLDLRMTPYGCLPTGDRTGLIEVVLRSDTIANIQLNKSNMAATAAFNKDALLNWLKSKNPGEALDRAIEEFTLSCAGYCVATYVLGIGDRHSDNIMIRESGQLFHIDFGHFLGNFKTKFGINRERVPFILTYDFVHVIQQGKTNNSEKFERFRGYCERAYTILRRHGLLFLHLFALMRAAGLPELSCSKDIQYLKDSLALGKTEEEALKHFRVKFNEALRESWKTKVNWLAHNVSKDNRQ
Sequence (P27986 whole entry partner, canonical isoform): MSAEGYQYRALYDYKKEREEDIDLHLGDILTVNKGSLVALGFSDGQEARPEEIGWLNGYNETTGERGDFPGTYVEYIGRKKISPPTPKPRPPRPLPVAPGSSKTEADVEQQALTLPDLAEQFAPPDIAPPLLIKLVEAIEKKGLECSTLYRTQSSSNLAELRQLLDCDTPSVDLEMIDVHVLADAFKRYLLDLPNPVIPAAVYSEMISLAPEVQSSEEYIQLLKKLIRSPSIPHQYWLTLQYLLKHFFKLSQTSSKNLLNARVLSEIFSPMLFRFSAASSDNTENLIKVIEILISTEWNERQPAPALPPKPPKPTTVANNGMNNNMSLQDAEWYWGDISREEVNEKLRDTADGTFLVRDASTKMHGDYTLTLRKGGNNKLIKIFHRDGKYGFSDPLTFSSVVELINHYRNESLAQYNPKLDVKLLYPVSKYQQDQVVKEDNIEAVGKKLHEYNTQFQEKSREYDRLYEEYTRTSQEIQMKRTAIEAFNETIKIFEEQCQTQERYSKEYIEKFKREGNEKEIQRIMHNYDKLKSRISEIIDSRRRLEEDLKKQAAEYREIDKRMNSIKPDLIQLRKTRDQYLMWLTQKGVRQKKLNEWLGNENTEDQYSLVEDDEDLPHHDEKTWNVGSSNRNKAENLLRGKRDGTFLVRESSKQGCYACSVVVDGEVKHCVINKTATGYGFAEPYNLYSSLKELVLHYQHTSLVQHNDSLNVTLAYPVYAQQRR
method_description: Enzymatic activity of PI3K isoforms, TR-FRET assay (PI3Kδ)
condition: 2× Km ATP, geometric mean if more than one value
As shown below, each of these molecules has a reported pIC50 value.
Scale explanation: pIC50 corresponds to minus log10 of a concentration expressed in moles per litre.

Examples from the recorded data:
* C[C@H](Nc1nc(N)nc(N)c1Cl)c1nc2cccc(Cl)c2c(=O)n1-c1ccc(N)nc1 | 8.52
* CC[C@H](Nc1nc(N)nc(N)c1C#N)c1nc2c(C#N)cc(F)cc2c(=O)n1-c1cncc(F)c1 | 7.22
* Cc1c(F)cncc1-n1c([C@@H](Nc2nc(N)nc(N)c2C#N)C2CC2)nc2c(F)ccc(Cl)c2c1=O (atropisomer, axis not shown) [Compound 66] | 8.52
* Cc1c(F)cncc1-n1c([C@H](C)Nc2nc(N)nc(N)c2C#N)nc2cccc(F)c2c1=O (atropisomer, axis not shown) [Compound 67] | 6.92
* C[C@H](Nc1nc(N)nc(N)c1C#N)c1nc2c(F)ccc(Cl)c2c(=O)n1-c1cccnc1 | 9.40

**Q:** // lookup pIC50 for `CC[C@H](Nc1nc(N)nc(N)c1C#N)c1nc2cccc(Cl)c2c(=O)n1-c1cccnc1`
**A:** 8.70

**Q:** // lookup pIC50 for `CCC[C@H](Nc1nc(N)nc(N)c1C#N)c1nc2ccc(F)c(Cl)c2c(=O)n1-c1ccc(N)nc1`
**A:** 8.05

---

target_system: PI3Kβ (Homo sapiens (Human), UniProt P42338)
Sequence (P42338 whole entry, one chain of several, canonical isoform): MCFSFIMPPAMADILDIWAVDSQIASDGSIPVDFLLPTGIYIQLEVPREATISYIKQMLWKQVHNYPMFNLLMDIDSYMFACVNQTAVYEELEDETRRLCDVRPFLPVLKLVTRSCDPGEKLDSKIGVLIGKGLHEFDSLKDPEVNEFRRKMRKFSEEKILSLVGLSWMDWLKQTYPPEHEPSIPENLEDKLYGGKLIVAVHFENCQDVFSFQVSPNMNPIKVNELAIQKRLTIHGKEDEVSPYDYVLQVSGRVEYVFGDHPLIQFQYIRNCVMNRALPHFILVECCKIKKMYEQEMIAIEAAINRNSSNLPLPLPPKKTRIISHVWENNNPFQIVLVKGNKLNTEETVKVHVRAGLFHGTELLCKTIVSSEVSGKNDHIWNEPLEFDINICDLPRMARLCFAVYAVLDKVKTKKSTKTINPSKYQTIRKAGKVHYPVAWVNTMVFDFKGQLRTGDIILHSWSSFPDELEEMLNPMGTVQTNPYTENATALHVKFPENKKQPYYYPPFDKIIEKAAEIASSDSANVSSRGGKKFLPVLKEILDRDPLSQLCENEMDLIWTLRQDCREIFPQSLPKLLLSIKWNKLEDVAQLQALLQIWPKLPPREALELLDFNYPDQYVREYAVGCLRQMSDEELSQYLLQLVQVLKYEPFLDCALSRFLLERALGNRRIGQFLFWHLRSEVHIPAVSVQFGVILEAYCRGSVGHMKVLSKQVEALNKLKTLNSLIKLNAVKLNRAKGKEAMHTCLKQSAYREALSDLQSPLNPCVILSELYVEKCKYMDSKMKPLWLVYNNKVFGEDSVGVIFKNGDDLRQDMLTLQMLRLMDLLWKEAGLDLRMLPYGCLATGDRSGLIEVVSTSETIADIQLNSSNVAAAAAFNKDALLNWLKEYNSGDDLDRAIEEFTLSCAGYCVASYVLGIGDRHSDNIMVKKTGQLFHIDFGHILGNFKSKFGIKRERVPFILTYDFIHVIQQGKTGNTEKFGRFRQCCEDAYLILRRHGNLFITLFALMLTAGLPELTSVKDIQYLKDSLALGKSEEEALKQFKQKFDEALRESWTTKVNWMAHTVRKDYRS
method_description: Enzymatic activity of PI3K isoforms, TR-FRET assay (PI3Kβ)
condition: 2× Km ATP, geometric mean if more than one value
As shown below, each of these molecules has a reported pIC50 value.
Scale explanation: pIC50 corresponds to minus log10 of a concentration expressed in moles per litre.

• Cc1cc(N)ncc1-n1c([C@H](C)Nc2nc(N)nc(N)c2C#N)nc2c(Cl)ccc(Cl)c2c1=O (atropisomer, axis not shown) [Compound 96] = 8.52
• Cc1cc(N)ncc1-n1c([C@H](C)Nc2nc(N)nc(N)c2C#N)nc2c(Cl)ccc(Cl)c2c1=O (atropisomer, axis not shown) [Compound 95] = 7.55
• Nc1ccc(-n2c([C@@H](Nc3nc(N)nc(N)c3Cl)C3CC3)nc3cccc(Cl)c3c2=O)cn1 = 7.57
• CCC[C@H](Nc1nc(N)nc(N)c1Cl)c1nc2cccc(Cl)c2c(=O)n1-c1ccc(N)nc1 = 7.21
• CC[C@H](Nc1nc(N)nc(N)c1C#N)c1nc2cccc(Cl)c2c(=O)n1-c1cnc(N)cc1C (atropisomer, axis not shown) [Compound 92] = 9.00
• Cc1cc(N)ncc1-n1c([C@H](C)Nc2nc(N)nc(N)c2C#N)nc2cccc(Cl)c2c1=O (atropisomer, axis not shown) [Compound 94] = 9.00
• CC[C@H](Nc1nc(N)nc(N)c1C#N)c1nc2cccc(Cl)c2c(=O)n1-c1ccc(N)nc1 = 9.10
• CC[C@H](Nc1nc(N)nc(N)c1C#N)c1nc2cccc(Cl)c2c(=O)n1-c1cnc(N)cc1C (atropisomer, axis not shown) [Compound 91] = 7.00
• CC[C@H](Nc1nc(N)nc(N)c1Cl)c1nc2cccc(Cl)c2c(=O)n1-c1ccc(N)nc1 = 7.46
• C[C@H](Nc1nc(N)nc(N)c1C#N)c1nc2cccc(Cl)c2c(=O)n1-c1cncc(N)c1 = 7.48

**Q:** // lookup pIC50 for `C[C@H](Nc1nc(N)nc(N)c1C#N)c1nc2c(Cl)ccc(Cl)c2c(=O)n1-c1ccc(N)nc1`
**A:** 9.00
